Can you tell me Emax for the items I'm about to list?
# subject-of-test: BRAF V600E (Homo sapiens, UniProt P15056, V600E)
# Sequence (P15056 whole entry V600E): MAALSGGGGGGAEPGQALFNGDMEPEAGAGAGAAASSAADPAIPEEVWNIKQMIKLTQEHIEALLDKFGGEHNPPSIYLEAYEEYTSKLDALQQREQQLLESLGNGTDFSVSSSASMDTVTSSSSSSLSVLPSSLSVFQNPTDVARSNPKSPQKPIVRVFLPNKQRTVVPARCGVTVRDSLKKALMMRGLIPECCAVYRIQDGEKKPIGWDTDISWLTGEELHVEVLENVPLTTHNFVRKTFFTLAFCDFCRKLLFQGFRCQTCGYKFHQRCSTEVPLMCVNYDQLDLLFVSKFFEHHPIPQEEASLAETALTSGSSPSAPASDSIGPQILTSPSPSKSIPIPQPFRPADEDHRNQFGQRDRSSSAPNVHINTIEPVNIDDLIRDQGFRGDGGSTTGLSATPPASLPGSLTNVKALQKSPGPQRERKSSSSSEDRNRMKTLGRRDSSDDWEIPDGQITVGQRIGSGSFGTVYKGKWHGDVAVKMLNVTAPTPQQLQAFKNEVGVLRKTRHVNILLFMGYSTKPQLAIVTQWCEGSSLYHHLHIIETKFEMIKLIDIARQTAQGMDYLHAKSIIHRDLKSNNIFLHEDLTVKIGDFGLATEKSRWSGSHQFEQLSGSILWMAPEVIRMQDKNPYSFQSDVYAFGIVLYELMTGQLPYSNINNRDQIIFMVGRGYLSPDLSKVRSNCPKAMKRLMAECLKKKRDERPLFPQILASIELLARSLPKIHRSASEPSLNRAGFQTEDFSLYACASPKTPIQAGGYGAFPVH
# assay-details: HiBiT cellular BRAF^V600E degradation assay
# Assay type: cell-based
# condition: A375.10 cells, 24 h; residual protein remaining in the cell; read-out: HiBit 24 h Emax

For the compound N#Cc1c(NS(=O)(=O)C2CCCC2)ccc(F)c1Oc1ccc2ncn([C@H]3COC4(CCN(C(=O)CN5CCC(c6ccc(NC7CCC(=O)NC7=O)cc6F)CC5)CC4)C3)c(=O)c2c1 (stereo partly drawn) , what Emax is on record?
11.6%

For the compound CCN(C)S(=O)(=O)Nc1ccc(F)c(Oc2ccc3ncn(C4CCC5(CCN(C(=O)CN6CCC(c7ccc(NC8CCC(=O)NC8=O)cc7F)CC6)CC5)C4)c(=O)c3c2Cl)c1C#N (stereo not drawn) , what Emax is on record?
10.7%

For the compound N#Cc1c(NS(=O)(=O)N2CCC2)ccc(F)c1Oc1ccc2ncn(-c3cnc(N4CCN(C(=O)CN5CCC(c6ccc(N[C@@H]7CCC(=O)NC7=O)cc6F)CC5)CC4)nc3)c(=O)c2c1 , what Emax is on record?
12.6%

* * *

Can you tell me Emax for the items I'm about to list?
# subject-of-test: BRAF V600E (Homo sapiens, UniProt P15056, V600E)
# assay-details: HiBiT cellular BRAF^V600E degradation assay
# Assay type: cell-based
# condition: A375.10 cells, 24 h; residual protein remaining in the cell; read-out: HiBit 24 h Emax
Give the number; % is assumed, so skip it.

For the molecule CCN(C)S(=O)(=O)Nc1ccc(F)c(Oc2ccc3ncn(-c4ccc(N5CCN(C(=O)CN6CCC(c7c(F)cc(NC8CCC(=O)NC8=O)cc7OC)CC6)CC5)nc4)c(=O)c3c2)c1C#N (stereo not shown) , what Emax is on record?
10.1

For the molecule CCN(C)S(=O)(=O)Nc1ccc(F)c(Oc2ccc3ncn([C@H]4COC5(CCN(C(=O)CN6CCN(c7ccc(C8CCC(=O)NC8=O)cc7F)CC6)CC5)C4)c(=O)c3c2)c1C#N (stereo partly shown) , what Emax is on record?
13

For the molecule CCN(C)S(=O)(=O)Nc1ccc(F)c(Oc2ccc3ncn([C@H]4COC5(CCN(C(=O)CN6CCC(c7ccc(N[C@H]8CCC(=O)NC8=O)cc7F)CC6)CC5)C4)c(=O)c3c2)c1C#N , what Emax is on record?
9.95

For the molecule CCN(C)S(=O)(=O)Nc1ccc(F)c(Oc2ccc3ncn(C(C)CCC4CCN(C(=O)CN5CCC(c6ccc(NC7CCC(=O)NC7=O)cc6F)CC5)CC4)c(=O)c3c2)c1C#N (stereo not shown) , what Emax is on record?
12.6

For the molecule CCN(C)S(=O)(=O)Nc1ccc(F)c(Oc2ccc3ncn([C@H]4COC5(CCN(C(=O)CN6CCN(c7ccc(NC8CCC(=O)NC8=O)cc7F)CC6)CC5)C4)c(=O)c3c2)c1C#N (stereo partly shown) , what Emax is on record?
13.4

For the molecule Cn1nc(N2CCC(=O)NC2=O)c2cc(F)c(N3CCC(O)(CC(=O)N4CCC5(CC4)C[C@@H](n4cnc6ccc(Oc7c(F)ccc(NS(=O)(=O)N8CC[C@@H](F)C8)c7C#N)cc6c4=O)CO5)CC3)cc21 , what Emax is on record?
24.7

For the molecule CC(C)S(=O)(=O)Nc1ccc(F)c(Oc2ccc3ncn([C@H]4COC5(CCN(C(=O)CN6CCC(c7ccc(NC8CCC(=O)NC8=O)cc7F)CC6)CC5)C4)c(=O)c3c2)c1C#N (stereo partly shown) , what Emax is on record?
8.44

For the molecule CCN(C)S(=O)(=O)Nc1ccc(F)c(Oc2ccc3ncn([C@H]4COC5(CCC(N6CCC(c7cc8c(cc7F)c(N7CCC(=O)NC7=O)nn8C)CC6)CC5)C4)c(=O)c3c2)c1C#N (stereo partly shown) , what Emax is on record?
26.9

For the molecule CCN(C)S(=O)(=O)Nc1ccc(F)c(Oc2ccc3ncn(-c4cnc(N5CCN(C(=O)CN6CCC(c7ccc(N[C@@H]8CCC(=O)NC8=O)cc7F)CC6)CC5)nc4)c(=O)c3c2OC)c1C#N , what Emax is on record?
11.4

For the molecule CO[C@H]1CCN(S(=O)(=O)Nc2ccc(F)c(Oc3ccc4ncn(-c5cnc(N6CCN(C(=O)CN7CCC(c8ccc(N[C@H]9CCC(=O)NC9=O)cc8F)CC7)CC6)nc5)c(=O)c4c3)c2C#N)C1 , what Emax is on record?
10.3

* * *

# subject-of-test: BRAF V600E (Homo sapiens, UniProt P15056, V600E)
# assay-details: HiBiT cellular BRAF^V600E degradation assay
# Type: cell-based
# condition: A375.10 cells, 24 h; concentration at which 50% of total cellular BRAF^V600E is degraded
Threshold 20 nM: DC50 strictly smaller gives 1, otherwise -1.

Say whether its DC50 is strictly beneath 20 nM. Entry: Cn1nc(C2CCC(=O)NC2=O)c2ccc(C3CCN(CC(=O)N4CCC5(CC4)C[C@@H](n4cnc6ccc(Oc7c(F)ccc(NS(=O)(=O)C8CCCC8)c7C#N)cc6c4=O)CO5)CC3)cc21 (stereo partly drawn)
-1

Say whether its DC50 is strictly beneath 20 nM. Entry: CCN(C)S(=O)(=O)Nc1ccc(F)c(Oc2ccc3ncn(C4CCC5(CCN(C(=O)CN6CCC(c7ccc(NC8CCC(=O)NC8=O)cc7F)CC6)CC5)C4)c(=O)c3c2)c1C#N (stereo not drawn)
-1

Say whether its DC50 is strictly beneath 20 nM. Entry: CCN(C)S(=O)(=O)Nc1ccc(F)c(Oc2ccc3ncn([C@H]4COC5(CCN(C(=O)CC6(O)CCN(c7cc8c(cc7F)c(N7CCC(=O)NC7=O)nn8C)CC6)CC5)C4)c(=O)c3c2O)c1C#N
1

Say whether its DC50 is strictly beneath 20 nM. Entry: CCN(C)S(=O)(=O)Nc1ccc(F)c(Nc2ccc3ncn([C@H]4COC5(CCN(C(=O)CC6(O)CCN(c7cc8c(cc7F)c(N7CCC(=O)NC7=O)nn8C)CC6)CC5)C4)c(=O)c3c2Cl)c1C#N (single isomer, unassigned)
1

Say whether its DC50 is strictly beneath 20 nM. Entry: CCN(C)S(=O)(=O)Nc1ccc(F)c(Oc2ccc3ncn(C4CCC5(CCN(C(=O)CN6CCC(c7ccc(NC8CCC(=O)NC8=O)cc7F)CC6)CC5)C4)c(=O)c3c2Br)c1C#N (stereo not drawn)
1

Say whether its DC50 is strictly beneath 20 nM. Entry: CCN(C)S(=O)(=O)Nc1ccc(F)c(Oc2ccc3ncn([C@H]4COC5(CCN(C(=O)CC6CCN(c7ccc8c(C9CCC(=O)NC9=O)nn(C)c8c7)CC6)CC5)C4)c(=O)c3c2)c1C#N (stereo partly drawn)
1

Say whether its DC50 is strictly beneath 20 nM. Entry: N#Cc1c(NS(=O)(=O)N2CC[C@@H](F)C2)ccc(F)c1Oc1ccc2ncn([C@H]3COC4(CCN(C(=O)CN5CCC(c6ccc(NC7CCC(=O)NC7=O)cc6F)CC5)CC4)C3)c(=O)c2c1 (stereo partly drawn)
-1

Say whether its DC50 is strictly beneath 20 nM. Entry: CCN(C)S(=O)(=O)Nc1ccc(F)c(Oc2ccc3ncn([C@H]4COC5(CCN(C(=O)CN6CCN(c7ccc(C8CCC(=O)NC8=O)cc7F)CC6)CC5)C4)c(=O)c3c2)c1C#N (stereo partly drawn)
-1

Say whether its DC50 is strictly beneath 20 nM. Entry: CCN(C)S(=O)(=O)Nc1ccc(F)c(Nc2ccc3ncn([C@H]4COC5(CCN(C(=O)CC6CCN(c7cc8c(cc7F)c(N7CCC(=O)NC7=O)nn8C)CC6)CC5)C4)c(=O)c3c2F)c1C#N (single isomer, unassigned)
1

* * *

# subject-of-test: BRAF V600E (Homo sapiens, UniProt P15056, V600E)
# assay-details: HiBiT cellular BRAF^V600E degradation assay
# Type: cell-based
# condition: A375.10 cells, 24 h; concentration at which 50% of total cellular BRAF^V600E is degraded
Class definitions on DC50: L = under 20 nM, M = from 20 nM up to 30 nM, H = 30 nM and over

Returns: class label. Input: CCN(C)S(=O)(=O)Nc1ccc(F)c(Oc2ccc3ncn([C@H]4CCC5(CCN(C(=O)CN6CCN(c7cc8c(cc7F)c(N7CCC(=O)NC7=O)nn8C)CC6)CC5)C4)c(=O)c3c2)c1C#N
L

Returns: class label. Input: CCN(C)S(=O)(=O)Nc1ccc(F)c(Oc2ccc3ncn(CCCC4(F)CCN(C(=O)CN5CCC(c6ccc(NC7CCC(=O)NC7=O)cc6F)CC5)CC4)c(=O)c3c2)c1C#N (stereo not shown)
L

Returns: class label. Input: CCN(C)S(=O)(=O)Nc1ccc(F)c(Oc2ccc3ncn([C@H]4COC5(CCN(C(=O)CN6CCC(c7ccc(NC8CCC(=O)NC8=O)cc7F)C(F)(F)C6)CC5)C4)c(=O)c3c2)c1C#N (stereo partly shown)
H

Returns: class label. Input: CCN(C)S(=O)(=O)Nc1ccc(F)c(Oc2ccc3ncn(C4CC5(CCN(C(=O)CN6CCC(c7ccc(NC8CCC(=O)NC8=O)cc7F)CC6)CC5)C4)c(=O)c3c2)c1C#N (stereo not shown)
L

Returns: class label. Input: N#Cc1c(NS(=O)(=O)C2CCC2)ccc(F)c1Oc1ccc2ncn(-c3cnc(N4CCN(C(=O)CN5CCC(c6ccc(N[C@@H]7CCC(=O)NC7=O)cc6F)CC5)CC4)nc3)c(=O)c2c1
M

Returns: class label. Input: CCN(C)S(=O)(=O)Nc1ccc(F)c(Oc2ccc3ncn(-c4ccc(N5CCN(C(=O)CN6CCC(c7cc(OC)c(NC8CCC(=O)NC8=O)cc7F)CC6)CC5)nc4)c(=O)c3c2)c1C#N (stereo not shown)
M

Returns: class label. Input: CCN(C)S(=O)(=O)Nc1ccc(F)c(Oc2ccc3ncc(OCC4CCN(C(=O)CN5CCC(c6ccc(NC7CCC(=O)NC7=O)cc6F)CC5)CC4)nc3c2)c1C#N (stereo not shown)
M

Returns: class label. Input: CCN(C)S(=O)(=O)Nc1ccc(F)c(Oc2ccc3ncn(-c4cnn(C5CCN(CC(=O)N6CCC(c7ccc(NC8CCC(=O)NC8=O)cc7)CC6)CC5)c4)c(=O)c3c2)c1C#N (stereo not shown)
H

Returns: class label. Input: CCN(C)S(=O)(=O)Nc1ccc(F)c(Oc2ccc3ncn([C@H]4CCC5(CCN(C(=O)CN6CCN(c7ccc(NC8CCC(=O)NC8=O)cc7F)CC6)CC5)C4)c(=O)c3c2)c1C#N (stereo partly shown)
H

Returns: class label. Input: CCN(C)S(=O)(=O)Nc1ccc(F)c(Oc2ccc3ncc([C@H]4COC5(CCN(C(=O)CN6CCC(c7ccc(NC8CCC(=O)NC8=O)cc7F)CC6)CC5)C4)nc3c2)c1C#N (stereo partly shown)
M

Returns: class label. Input: CCN(C)S(=O)(=O)Nc1ccc(F)c(Oc2ccc3ncn(CC(C)CC4CCN(C(=O)CN5CCC(c6ccc(NC7CCC(=O)NC7=O)cc6F)CC5)CC4)c(=O)c3c2)c1C#N (stereo not shown)
L

Returns: class label. Input: CCN(C)S(=O)(=O)Nc1ccc(F)c(Oc2ccc3ncn(-c4cnc(N5CCN(C(=O)CC6(O)CCN(c7cc8c(cc7F)c(N7CCC(=O)NC7=O)nn8C)CC6)CC5)nc4)c(=O)c3c2)c1C#N
M

Returns: class label. Input: CCN(C)S(=O)(=O)Nc1ccc(F)c(Oc2ccc3ncn([C@H]4COC5(CCC(N6CCC(c7cc8c(cc7F)c(N7CCC(=O)NC7=O)nn8C)CC6)CC5)C4)c(=O)c3c2)c1C#N (stereo partly shown)
L

Returns: class label. Input: CCN(C)S(=O)(=O)Nc1ccc(F)c(Oc2ccc3ncn([C@H]4CCC5(CCN(C(=O)CC6(O)CCN(c7cc8c(cc7F)c(N7CCC(=O)NC7=O)nn8C)CC6)CC5)C4)c(=O)c3c2)c1C#N
L

Returns: class label. Input: N#Cc1c(NS(=O)(=O)C2CCC2)ccc(F)c1Oc1ccc2ncn(-c3cnc(N4CCN(C(=O)CN5CCC(c6ccc(N[C@H]7CCC(=O)NC7=O)cc6F)CC5)CC4)nc3)c(=O)c2c1
L

Returns: class label. Input: CCN(C)S(=O)(=O)Nc1ccc(F)c(Oc2ccc3ncn(C4CCC5(CCN(C(=O)CN6CCC(c7ccc(NC8CCC(=O)NC8=O)cc7F)CC6)CC5)C4)c(=O)c3c2Cl)c1C#N (stereo not shown)
M

Returns: class label. Input: Cn1nc(N2CCC(=O)NC2=O)c2cc(F)c(N3CCC(O)(CC(=O)N4CCC5(CC4)C[C@@H](n4cnc6ccc(Oc7c(F)ccc(NS(=O)(=O)N8CCCCC8)c7C#N)cc6c4=O)CO5)CC3)cc21
H
